Test: Plasma and brain PK (IV / IP dosing)
Setup conditions: plasma, iv, 5 mg/kg
Task for the reader: assign each of the following compounds its reported AUC(0-t).
Number plus unit, in that order.

// worked examples, AUC(0-t) included
> print(dat)
                                   compound       result
1  Br.Cc1ccc(C[C@@H](C(=O)N2CC3(COC3)C2)n2c(=N)n(C(C)c3ccc(C)cc3)c3ccccc32)cc1 (stereo partly drawn) [WZ-II-151]  908 ng·h/mL
2  Br.Cc1ccc(CC(C(=O)N2CC(C#N)C2)n2c(=N)n(C(C)c3ccc(C)cc3)c3cccnc32)cc1 (single isomer, unassigned) [WZ-II-253]  518 ng·h/mL

--- query ---
Entry Br.COCC(Cc1ccc(C)cc1)n1c(=N)n(C(C)c2ccc(C)cc2)c2cccnc21 (single isomer, unassigned) [WZ-II-149] has what AUC(0-t)?
1130 ng·h/mL

* * *

Test: Plasma and brain PK (IV / IP dosing)
Setup conditions: plasma, iv, 5 mg/kg
Metric name: Tmax (min)
Give bare numbers, in min.

// worked examples, Tmax included
> print(dat)
                                   compound  metric.name  unit.tag  numeric.result
1  Br.Cc1ccc(CC(C(=O)N2CC(C#N)C2)n2c(=N)n(C(C)c3ccc(C)cc3)c3cccnc32)cc1 (single isomer, unassigned)         Tmax       min              10
2  Br.Cc1ccc(C[C@@H](C(=O)N2CC3(COC3)C2)n2c(=N)n(C(C)c3ccc(C)cc3)c3ccccc32)cc1 (stereo partly drawn)         Tmax       min              10

--- query ---
Entry Br.COCC(Cc1ccc(C)cc1)n1c(=N)n(C(C)c2ccc(C)cc2)c2cccnc21 (single isomer, unassigned) has what Tmax?
10

* * *

Test: BBB penetration (method not described)
Setup conditions: brain / plasma, iv, 5 mg/kg; read-out: unlabelled value after the PK data (matches brain/plasma AUClast ratio, 5mpk IV)
Metric name: Kp
One number for each entry.

Entry Br.COCC(Cc1ccc(C)cc1)n1c(=N)n(C(C)c2ccc(C)cc2)c2cccnc21 (single isomer, unassigned) has what Kp?
1.13

* * *

Test: Plasma and brain PK (IV / IP dosing)
Setup conditions: brain, ip, 10 mg/kg
Metric name: Cmax (ng/mL)
Numbers only, in ng/mL.

Entry Br.COCC(Cc1ccc(C)cc1)n1c(=N)n(C(C)c2ccc(C)cc2)c2cccnc21 (single isomer, unassigned) has what Cmax?
77.8

* * *

Test: Plasma and brain PK (IV / IP dosing)
Setup conditions: plasma, ip, 10 mg/kg
Metric name: Cmax
Number plus unit, in that order.

Entry Br.COCC(Cc1ccc(C)cc1)n1c(=N)n(C(C)c2ccc(C)cc2)c2cccnc21 (single isomer, unassigned) [WZ-II-149] has what Cmax?
638 ng/mL

* * *

Test: Plasma and brain PK (5 mg/kg IV)
Type: in vivo
Setup conditions: mouse, plasma, female CD-1 mice
Metric name: Cmax (ng/mL)
Numbers only, in ng/mL.

> print(dat)
                                   molecule  metric.name  numeric.result
1  Cc1ccc(CC(CNC(=O)CO)n2c(=N)n([C@@H](C)c3ccc(C)cc3)c3ccccc32)cc1 (some centres unmarked)         Cmax             600

--- query ---
Entry COCC(Cc1ccc(C)cc1)n1c(=N)n(C(c2ccc(C)cc2)C2CC2)c2ccccc21 (single isomer, unassigned) has what Cmax?
841

* * *

Test: Plasma and brain PK (IV / IP dosing)
Setup conditions: brain, ip, 10 mg/kg
Metric name: Tmax (min)
One number for each entry, in min.

Entry Br.COCC(Cc1ccc(C)cc1)n1c(=N)n(C(C)c2ccc(C)cc2)c2cccnc21 (single isomer, unassigned) has what Tmax?
10

* * *

Test: Plasma and brain PK (IV / IP dosing)
Setup conditions: brain, ip, 10 mg/kg
Metric name: AUC(0-t) (ng·h/mL)
Answers are plain numbers, in ng·h/mL.

Entry Br.COCC(Cc1ccc(C)cc1)n1c(=N)n(C(C)c2ccc(C)cc2)c2cccnc21 (single isomer, unassigned) [WZ-II-149] has what AUC(0-t)?
134

* * *

Test: Plasma and brain PK (IV / IP dosing)
Setup conditions: brain, iv, 5 mg/kg
Task for the reader: assign each of the following molecules its reported Cmax.
Answers are plain numbers, in ng/mL.

// worked examples, Cmax included
> print(dat)
                                   molecule  unit.tag  numeric.result
1  Br.COCC(Cc1ccc(C)cc1)n1c(=N)n(C(C)c2ccc(C)cc2)c2cccnc21 (single isomer, unassigned)     ng/mL            1300
2  Br.Cc1ccc(C[C@@H](C(=O)N2CC3(COC3)C2)n2c(=N)n(C(C)c3ccc(C)cc3)c3ccccc32)cc1 (stereo partly drawn)     ng/mL            22.7

--- query ---
Entry Br.Cc1ccc(CC(C(=O)N2CC(C#N)C2)n2c(=N)n(C(C)c3ccc(C)cc3)c3cccnc32)cc1 (single isomer, unassigned) has what Cmax?
218

* * *

Test: Plasma and brain PK (5 mg/kg IV)
Format: in vivo
Setup conditions: mouse, plasma, female CD-1 mice, read-out: Plasma AUClast
Task for the reader: assign each of the following molecules its reported AUC(0-t).
One number for each entry, in ng·h/mL.

> print(dat)
                                   molecule  unit.tag  numeric.result
1  Cc1ccc(CC(CNC(=O)CO)n2c(=N)n([C@@H](C)c3ccc(C)cc3)c3ccccc32)cc1 (some centres unmarked) [ww5-189]   ng·h/mL             691

--- query ---
Entry COCC(Cc1ccc(C)cc1)n1c(=N)n(C(c2ccc(C)cc2)C2CC2)c2ccccc21 (single isomer, unassigned) [ww6-61] has what AUC(0-t)?
986

* * *

Test: Plasma and brain PK (IV / IP dosing)
Setup conditions: brain, iv, 5 mg/kg
Task for the reader: assign each of the following molecules its reported half-life.
Numbers only, in h.

// worked examples, half-life included
> print(dat)
                                   molecule  metric.name  unit.tag  numeric.result
1  Br.Cc1ccc(C[C@@H](C(=O)N2CC3(COC3)C2)n2c(=N)n(C(C)c3ccc(C)cc3)c3ccccc32)cc1 (stereo partly drawn) [WZ-II-151]    half-life         h            4.48
2  Br.Cc1ccc(CC(C(=O)N2CC(C#N)C2)n2c(=N)n(C(C)c3ccc(C)cc3)c3cccnc32)cc1 (single isomer, unassigned) [WZ-II-253]    half-life         h           0.783

Entry Br.COCC(Cc1ccc(C)cc1)n1c(=N)n(C(C)c2ccc(C)cc2)c2cccnc21 (single isomer, unassigned) [WZ-II-149] has what half-life?
2.22

* * *

Task for the reader: assign each of the following compounds its reported Tmax.
Test: Plasma and brain PK (5 mg/kg IV)
Assay type: in vivo
Setup conditions: mouse, plasma, female CD-1 mice, read-out: Plasma Tmax
Number plus unit, in that order.

> print(dat)
                                   compound  metric.name  result
1  COCC(Cc1ccc(C)cc1)n1c(=N)n(C(c2ccc(C)cc2)C2CC2)c2ccccc21 (single isomer, unassigned)         Tmax  10 min

--- query ---
Entry Cc1ccc(CC(CNC(=O)CO)n2c(=N)n([C@@H](C)c3ccc(C)cc3)c3ccccc32)cc1 (some centres unmarked) has what Tmax?
10 min

* * *

Test: Plasma and brain PK (IV / IP dosing)
Setup conditions: plasma, ip, 10 mg/kg
Metric name: AUC(0-t)
Number plus unit, in that order.

Entry Br.COCC(Cc1ccc(C)cc1)n1c(=N)n(C(C)c2ccc(C)cc2)c2cccnc21 (single isomer, unassigned) [WZ-II-149] has what AUC(0-t)?
1000 ng·h/mL

* * *

Test: Plasma and brain PK (IV / IP dosing)
Setup conditions: plasma, ip, 10 mg/kg
Metric name: Tmax (min)
Give bare numbers, in min.

Entry Br.COCC(Cc1ccc(C)cc1)n1c(=N)n(C(C)c2ccc(C)cc2)c2cccnc21 (single isomer, unassigned) has what Tmax?
10

* * *

Test: Plasma and brain PK (IV / IP dosing)
Setup conditions: brain, iv, 5 mg/kg
Metric name: Tmax (min)
Give bare numbers, in min.

Record Tmax for all entries; do not skip any.
1. Br.Cc1ccc(C[C@@H](C(=O)N2CC3(COC3)C2)n2c(=N)n(C(C)c3ccc(C)cc3)c3ccccc32)cc1 (stereo partly drawn) [WZ-II-151]
2. Br.COCC(Cc1ccc(C)cc1)n1c(=N)n(C(C)c2ccc(C)cc2)c2cccnc21 (single isomer, unassigned) [WZ-II-149]
3. Br.Cc1ccc(CC(C(=O)N2CC(C#N)C2)n2c(=N)n(C(C)c3ccc(C)cc3)c3cccnc32)cc1 (single isomer, unassigned) [WZ-II-253]

10
10
10

* * *

Test: in vitro
Setup conditions: human, Caco-2
Metric name: efflux ratio
Answers are plain numbers.

Entry C/N=c1\n(Cc2ccc(C)cc2)c2ccccc2n1C(CO)Cc1ccc(C)cc1 (stereo not shown) has what efflux ratio?
2.5
